target: glucagon receptor (human, UniProt P47871 26-477); assay: cell-based or functional assay
Sequence (P47871 26-477): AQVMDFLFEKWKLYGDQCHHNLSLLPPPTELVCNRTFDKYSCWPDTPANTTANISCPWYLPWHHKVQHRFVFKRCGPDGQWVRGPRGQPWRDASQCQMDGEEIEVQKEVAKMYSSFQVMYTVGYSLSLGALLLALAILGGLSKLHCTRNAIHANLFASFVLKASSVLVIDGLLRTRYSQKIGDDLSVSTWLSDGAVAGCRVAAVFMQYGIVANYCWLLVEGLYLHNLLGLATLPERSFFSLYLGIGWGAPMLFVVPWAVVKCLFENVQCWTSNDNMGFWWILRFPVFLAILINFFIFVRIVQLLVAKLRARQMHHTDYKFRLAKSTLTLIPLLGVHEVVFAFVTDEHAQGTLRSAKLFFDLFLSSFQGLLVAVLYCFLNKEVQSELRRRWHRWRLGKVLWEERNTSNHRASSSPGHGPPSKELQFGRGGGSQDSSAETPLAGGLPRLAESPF
No end group written: not given here. *: point of attachment. Palmitoyl = CCCCCCCCCCCCCCCC(=O)*
Assay metric: EC50 (cAMP luciferase reporter) (nM)
Report only the number, with the unit nM understood.

HSQGTFTSDK(Palmitoyl)SKYLDEEAVRLFIEWLMNT-NH2 [Glucagon Analog 39]	2.54
HSQGTFTSDYSKYLDEEAVRLFICWLMNT-NH2 (also: DPP-IV-resistant residue at position 1 or 2) [Glucagon Analog 32]	0.22
HSQGTFTSDKSKYLDERAAQDFVC(PEG 40 kDa)WLLDT-NH2 (not fully specified (residue 10); also: Lys10 acylated, acyl group not given here) [Glucagon Analog 29]	0.085
HSQGTFTSDYSKYLDEEAVRLFICWLMNT-NH2 (also: DPP-IV-resistant residue at position 1 or 2) [Glucagon Analog 34]	0.404
HSQGTFTSDKSKYLDEQAVRLFIC(PEG 40 kDa)WLLDT-NH2 (also: acylated amino acid at position 10, acyl group not given here) [Glucagon Analog 85]	0.107

For the binder HSQGTFTSDYSKYLDEQAVRLFICWLLDGGPSSGAPPPS-NH2 (not fully specified; also: further groups not given here) [Glucagon Analog 84] , report EC50 (cAMP luciferase reporter). 0.132

Input HSQGTFTSDYSKYLDEKRAKEFVQWLMNT-NH2 (also: DPP-IV-protecting residue at position 1 or 2: D-Ser, Aib or Dmia, salt bridge Lys17/Glu21 plus salt bridge 16/20 or α,α-disubstituted residue at 16) [Glucagon Analog 20] , output reported EC50 (cAMP luciferase reporter). 0.054
